Quick reference for inhibition among some molecules
- MEASUREMENT_DESCRIPTION: inhibitors of TNFa-induced NFkB p65 translocation, primary screen, imaging, HUVEC, MLSMR starter and 10KST1 sets (AID 438);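 further: compound added about 3h40 before a 20 min TNFalpha stimulation; signal is the nuclear over cytoplasmic p65 intensity ratio per well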
- TEST_SETTINGS: HUVEC TNFa-induced p65 nuclear translocation; at 2 µM, stronger effect = higher value, 0% TNFa-plus-vehicle, 100% no-TNFa wells

# MOLECULE, UNITS_TEXT, inhibition
rows = [
    ("CCCOc1ccc(Cc2nn[nH]n2)cc1", "%", -9.9),
    ("CC(C(=O)N1CCCCC1)N1C(=O)c2ccccc2C1=O (stereo not given)", "%", -17.2),
    ("Cc1c(N=Cc2c(O)n(C3CCCCC3)c(=O)[nH]c2=O)c(=O)n(-c2ccccc2)n1C", "%", -20.1),
    ("CCOc1ccc2c(C)nc(NC3=NC(C)(C)C=C(C)N3)nc2c1", "%", -3.1),
    ("O=C(O)C1CCCCN1S(=O)(=O)c1cccc2nsnc12 (stereo not given)", "%", 9.4),
    ("C=CCn1c(SCC(=O)NC23CC4CC(CC(C4)C2)C3)nc(O)cc1=O", "%", -3.7),
    ("Cc1ccc(C(=O)CSC2=C(C#N)C(c3ccco3)C3=C(CCCC3=O)N2)cc1 (stereo not given)", "%", -7.4),
    ("CCc1cc(=O)oc2c(CN3CCCC3)c(O)c(Cl)cc12", "%", -8.8),
    ("COc1cc(/C=N/n2c(C)nnc2C)cc(OC)c1OC", "%", -5.9),
    ("Cc1ccc2[nH]c3c(N4CCOCC4)ncnc3c2c1", "%", -3.9),
    ("CC1=CC=CN2CC(O)CN=C12 (stereo not given)", "%", -3.9),
    ("CCOC(=O)CCc1c(C)c(C#N)c2[nH]c3ccccc3n2c1=O", "%", -1.4),
    ("COc1ccc(C2(CN(C(C)=O)C(C)=O)CCCC2)cc1OC", "%", -6.2),
    ("CC1C[C@@]2(NC(=O)NC2=O)C(C)CN1C (stereo not given in full)", "%", -6.8),
    ("NC(Cc1ccc(Oc2ccc(O)cc2)cc1)C(=O)O (stereo not given)", "%", -6.8),
    ("COc1cccc(OC)c1OCC(C)CNCC1CCCO1 (stereo not given)", "%", -5.6),
    ("Cc1nn(C)cc1C1C2=C(CC(C)(C)CC2=O)OC2=C1C(=O)CC(C)(C)C2", "%", -2.2),
    ("O=C(O)c1cc(-c2ccccc2)nc2ccccc12", "%", -5.1),
    ("COc1ccc(C2/C(=C(/O)c3cnn(-c4ccccc4)c3C)C(=O)C(=O)N2CCN(C)C)cc1OC (stereo not given)", "%", -9.1),
    ("CCCN(CCC)S(=O)(=O)c1ccc(C(=O)O)cc1", "%", -9.8),
    ("N#Cc1c(N)sc(=S)c2c1CCCCC2", "%", -3.2),
    ("CC1CCc2cc(F)cc3c(O)c(C(=O)NCC4CCCO4)c(=O)n1c23 (stereo not given)", "%", 2.6),
    ("COc1ccccc1N(O)C1CC(=O)N(c2ccc(F)cc2)C1=O (stereo not given)", "%", -7.6),
    ("CCOC(=O)c1c(NC(=O)CCN2CCOCC2)sc2c1CC(C)(C)OC2", "%", -8.1),
    ("CC(C)CC(NC(=O)OC(C)(C)C)C(=O)NCc1ccccc1 (stereo not given)", "%", -12.9),
    ("COc1ccc(-c2oc3ncn4nc(Cc5ccccc5)nc4c3c2-c2ccc(OC)cc2)cc1", "%", -7.8),
    ("COC(=O)c1ccc(Cn2nnc3c(sc4nc(N5CCOCC5)c5c(c43)CCCC5)c2=O)o1", "%", -14.8),
    ("CCCOc1cccc(-c2nnc(N)s2)c1", "%", -3.6),
    ("CC(=O)C1=C(O)C(=O)N(c2cccc(C(=O)O)c2)C1c1ccccc1F (stereo not given)", "%", -2.4),
    ("COCc1cc(=O)[nH]c(Nc2nc3ccc(C)cc3o2)n1", "%", -19),
    ("CCCN(CCC)C(=O)CC(c1ccc(F)cc1)c1ccco1 (stereo not given)", "%", -1.8),
    ("CC(C)Nc1nc(NC(C)C)nc(N(C)n2cnnc2)n1", "%", -8.8),
    ("CSc1nc(N2CCCC2)c2c(c1C#N)CC(C)(C)OC2", "%", -4.5),
    ("CCN(CC)CCN1C(=O)C(O)=C(C(=O)c2cccs2)C1c1ccccn1 (stereo not given)", "%", 1.8),
    ("CC1(C)CC(=O)C(CCCN2C(=O)c3ccccc3C2=O)C(=O)C1", "%", 0.1),
    ("CC1(C(=O)O)CCC(C(=O)NC2CCCCCC2)C1(C)C (stereo not given)", "%", -9.8),
    ("CC(C)(C)n1cnc2cc(NS(=O)(=O)c3ccc(Br)cc3)ccc21", "%", -1.5),
    ("COc1ccc(C=NCCC2(O)CC(C)N(C)CC2C)cc1 (stereo not given)", "%", -16.4),
    ("CCOC(=O)C(C)Oc1nc(Oc2ccccc2)nc(N(C)C)n1 (stereo not given)", "%", -4.1),
    ("COc1cc2[nH]c3c(=O)n(CCN(C(C)C)C(C)C)cnc3c2cc1OC", "%", -5.6),
    ("COc1cc(C2NC(=O)NC(C)=C2C(=O)Nc2cccc(C)c2C)cc(OC)c1OC (stereo not given)", "%", -3.3),
    ("CCN(CC)CCNC(=O)c1ccccc1N", "%", -17.4),
    ("Cc1oncc1C(=O)Nc1ccc(C(F)(F)F)cc1", "%", -5.4),
    ("CO[C@H]1C[C@@H]2CC[C@@H](C)[C@@](O)(O2)C(=O)C(=O)N2CCCC[C@H]2C(=O)O[C@H]([C@H](C)C[C@@H]2CC[C@@H](O)[C@H](OC)C2)CC(=O)[C@H](C)C=C(C)[C@@H](O)[C@@H](OC)C(=O)[C@H](C)C[C@H](C)C=CC=CC=C1C", "%", -23.5),
    ("Cc1ccccc1NC(=O)NCCc1nc2ccccc2[nH]1", "%", 1.8),
]

---

- MEASUREMENT_DESCRIPTION: inhibitors of E-selectin induction by TNFa, primary screen, imaging, HUVEC, immunofluorescence, MLSMR starter and 10KST1 sets (AID 487);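 on inhibition: signal is fraction of cell area covered by stained E-selectin grains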
- TEST_SETTINGS: HUVEC TNFalpha-induced E-selectin immunofluorescence imaging, at 2 µM; stronger effect = higher value
Outcome label depends on inhibition relative to -60%: at/above gives class 1, below gives class 0.

# SMILES_REPRESENTATION, CLASS_ASSIGNMENT
rows = [
    ("Nc1nnc(-c2cccc(Cl)c2Cl)c(N)n1", "class 1"),
    ("Cn1ncc(N=Cc2ccccc2O)c1C(=O)Nc1ccccc1", "class 1"),
    ("Cc1ccc(-n2nc3cc(Cl)c(NC(=O)c4ccco4)cc3n2)cc1", "class 1"),
    ("CN1c2ccccc2N(C)C1c1c(O)ccc2ccccc12", "class 0"),
    ("Cc1ccc(Cl)c(Nc2ccccc2C(=O)O)c1Cl", "class 0"),
]

---

- MEASUREMENT_DESCRIPTION: DUSP6 inhibitors restoring Erk phosphorylation by chemical complementation, primary imaging in DUSP6-transfected HeLa (AID 609)
- TEST_SETTINGS: HeLa MKP-3 transfected, phospho-Erk imaging KS statistic; measured here: cell density z-score; at 10 µM; cells stimulated with TPA for 15 min
Quick reference for z-score among some molecules

# SMILES_REPRESENTATION, z-score
rows = [
    ("COc1ccc(OCC(=O)N2CCN(C(=O)c3cccc4ccccc34)CC2)cc1", -0.479),
    ("C=CCn1cnc2c(c1=O)c1nc3ccccc3nc1n2-c1ccc(Cl)cc1", 0.198),
    ("CCCCC(=O)O[C@H]1CC[C@H]2[C@@H]3CCc4cc(O)ccc4[C@H]3CC[C@]12C", -0.577),
    ("COc1cc(C(=O)OCCN2CCCCC2)ccc1O", -0.395),
    ("CCN(CC)CCNC(=O)c1cc(Cl)c(N)cc1OC", 0.156),
    ("C[C@H]1C[C@@H]2[C@H]([C@@H](O)C[C@@]3(C)[C@H]2CC[C@]3(O)C(=O)CO)[C@@]2(C)C=CC(=O)C=C12", 1.04),
]

---

- MEASUREMENT_DESCRIPTION: inhibitors of E-selectin induction by TNFa, primary screen, imaging, HUVEC, immunofluorescence, MLSMR starter and 10KST1 sets (AID 487);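 on nuclei count: 100% = median nuclei count of all wells on the same plate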
- TEST_SETTINGS: HUVEC TNFalpha-induced E-selectin immunofluorescence imaging, at 2 µM; measured here: cell number, toxicity
PARAMETER: nuclei count (%)

# COMPOUND, QUANTITATIVE_RESULT
records = [
    ("Cc1ccc2[nH]c3c(N4CCOCC4)ncnc3c2c1", 152),
    ("Clc1ccccc1CN1CCc2sccc2C1", 110),
    ("COc1ccc(Cn2c(N)c(C#N)c3nc4ccccc4nc32)cc1OC", 123),
    ("CC(=O)Nn1cnc2c(c1=O)C1(CCCC1)Cc1ccccc1-2", 113),
    ("OCCNc1ncnc2c1c(-c1ccccc1)c(-c1ccccc1)n2Cc1ccco1", 91.6),
    ("Cc1c(N2C(=O)SC(CC(=O)O)C2=O)c(=O)n(-c2ccccc2)n1C (stereo unspecified)", 128),
    ("COC(=O)CN(c1cc(OC)ccc1OC)S(=O)(=O)c1ccc(OC)c(OC)c1", 130),
    ("CCOC(=O)CSc1nnc2n(C3CCCCC3)c(=O)c3c4c(sc3n12)CCCC4", 146),
    ("CC(C)c1cc(NCCN2CCOCC2)n2c(nc3ccccc32)c1C#N", 100),
    ("N#CC1=C(N)NC(SCc2ccc(Cl)cc2)=C(C#N)C12CCCCC2", 180),
    ("CCOc1cc(CN2CCOCC2)cc(C(C)=O)c1", 110),
]
